System: PNPLA3 mRNA
method: qRT-PCR of PNPLA3 mRNA in compound-treated primary human hepatocytes
condition_set: JAK inhibitors, 10 μM, human hepatocytes, qRT-PCR, mean of three replicates ± standard deviation
Lab note: anything with Relative PNPLA3 mRNA levels at or over 0.8 counts as class 1; the rest go in class 0.

{"columns": ["molecule", "measurement_target", "discrete_label"],
 "data": [
  ["O=C(Nc1nc2cccc(-c3ccc(CN4CCS(=O)(=O)CC4)cc3)n2n1)C1CC1 [Filgotinib]", "PNPLA3 mRNA", "class 1"],
  ["CC1(C)CN(C(=O)c2ccc(-c3cccc4nc(NC(=O)C5CC5)nn34)cc2)C1 [Solcitinib]", "PNPLA3 mRNA", "class 1"],
  ["N#CC[C@H](C1CCCC1)n1cc(-c2ncnc3[nH]ccc23)cn1 [Ruxolitinib]", "PNPLA3 mRNA", "class 1"],
  ["CC[C@@H]1CN(C(=O)NCC(F)(F)F)C[C@@H]1c1cnc2cnc3[nH]ccc3n12 [Upadacitinib]", "PNPLA3 mRNA", "class 1"],
  ["Cc1cc(Nc2cc(CN3CCOCC3)c3nc(C)c(Cc4ccc(Cl)cc4F)n3n2)n[nH]1 [Gandotinib]", "PNPLA3 mRNA", "class 0"],
  ["Cc1cc(Nc2nc(N[C@@H](C)c3ncc(F)cn3)ncc2Cl)[nH]n1 [AZD1480]", "PNPLA3 mRNA", "class 0"],
  ["CNS(=O)(=O)C[C@H]1CC[C@H](N(C)c2ncnc3[nH]ccc23)CC1 [Oclacitinib]", "PNPLA3 mRNA", "class 0"]
]}

----------
System: PNPLA3 mRNA
method: qRT-PCR of PNPLA3 mRNA in compound-treated primary human hepatocytes
condition_set: donor 4178, 3 μM, relative to GUSB
# strict inequality: Primary Hepatocytes 4178 PNPLA3 (fold change in mRNA expression) < 0.6 yields 1, everything else yields 0

{"columns": ["compound", "discrete_label"],
 "data": [
  ["CNC(=O)Nc1ccc(-c2nc(N3CC4CCC(C3)O4)c3cnn(C4CCC5(CC4)OCCO5)c3n2)cc1 [WYE-125132]", 1],
  ["CO[C@@H](C)Cn1c(=O)n(C)c2cnc3ccc(-c4cncc(C(C)(C)O)c4)cc3c21 [LY3023414]", 0],
  ["C[C@@H](Nc1cc(F)cc(F)c1)c1cc(C(=O)N(C)C)cc2c(=O)cc(N3CCOCC3)oc12 [AZD8186]", 0],
  ["O=[N+]([O-])c1ccc(Nc2nc(N3CCOCC3)nc(N3CCOCC3)n2)cc1 [MHY1485]", 0],
  ["Nc1cc(C(F)(F)F)c(-c2nc(N3CCOCC3)nc(N3CCOCC3)n2)cn1 [PQR309]", 1],
  ["CS(=O)(=O)N1CCc2c(-c3cnc(N)nc3)nc(N3CCOCC3)nc21 [CH5132799]", 1],
  ["C[C@H](Nc1ncnc2[nH]cnc12)c1cc2ccc(F)cc2nc1-c1ccccn1 [AMG319]", 0],
  ["Cc1nc(NC(=O)N2CCC[C@H]2C(N)=O)sc1-c1ccnc(C(C)(C)C(F)(F)F)c1 [Alpelisib (BYL719), Alpelisib]", 0],
  ["Cc1c(CN2CCN(C(=O)[C@H](C)O)CC2)sc2c(N3CCOCC3)nc(-c3cnc(N)nc3)nc12 [Apitolisib (GDC-0980, RG7422)]", 1],
  ["CCOC(=O)C1=C(N)Oc2ccc(Cl)cc2C1C(C#N)C(=O)OCC (centres unmarked) [SC79]", 0],
  ["O=c1c(O)c(-c2ccc(O)c(O)c2)oc2cc(O)cc(O)c12 [Quercetin]", 0],
  ["Nc1nc2cc(-c3ccc4ncc(C(=O)N5CCOCC5)n4c3)ccc2o1 [MLN1117]", 0],
  ["C[C@H](NC(=O)c1c(N)nn2cccnc12)c1cc2cccc(C#Cc3cnn(C)c3)c2c(=O)n1-c1ccccc1 [IPI-549]", 0],
  ["CC(C)n1nc(-c2ccc3oc(N)nc3c2)c2c(N)ncnc21 [INK-128]", 0],
  ["O=C1OC(COc2ccccc2[N+](=O)[O-])CC1Cc1ccccc1 (centres unmarked) [Compound 3BDO]", 0],
  ["COc1ccc(-c2nc(N3CCOCC3)c3sc(CN(C)c4ncc(C(=O)NO)cn4)cc3n2)cn1 [CUDC-907]", 1],
  ["Cc1nc(-c2cn3c(n2)-c2ccc(-c4cnn(C(C)(C)C(N)=O)c4)cc2OCC3)n(C(C)C)n1 [Taselisib (GDC 0032)]", 0],
  ["Nc1cc(C(F)(F)F)c(-c2cc(N3CCOCC3)nc(N3CCOCC3)n2)cn1 [Buparlisib (BKN120, NVE-BKM120)]", 1],
  ["CC(C)Oc1ccc(-c2nn([C@@H](C)c3oc4ccc(F)cc4c(=O)c3-c3cccc(F)c3)c3ncnc(N)c23)cc1F [umbralisib (TGR-1202)]", 0],
  ["Cc1nc(-c2cn3c(n2)-c2ccc(-c4cnn(C(C)(C)C(N)=O)c4)cc2OCC3)n(C(C)C)n1 [GDC-0032]", 1],
  ["CO[C@H]1CC[C@H](N2C(=O)CNc3ncc(-c4ccc(C(C)(C)O)nc4)nc32)CC1 [CC-223]", 1],
  ["C[C@H](Nc1ncnc2[nH]cnc12)c1nc2ccc(F)cc2c(=O)n1-c1ccccc1 [Acalisib]", 0]
]}
